In this section we review reported protein stability index values for a set of sequences.
- protocol-text: protein stability index of a GFP-peptide fusion (yeast GPS) (PSI 1-4); higher = more stable; sorted into four equal gates, so the index is relative within each strain
- measurement-conditions: san1∆

biopolymer-sequence	protein stability index
EDVDDEELDITPLFPID [IRR1]	3
ILDIVINNPVNLTIHFG [FAS1]	2.5
AQFAGRASIEYYVGQVM [DIS3]	2.64
YIIQGSNTNDNISIITL [RGR1]	2.19
DDLADDDFEEDEDEEDD [RPC31]	3.21
RATNCRKRKCGHTNQLR [RPL40A]	3.12
TVLCTPTGGKAKLSEGT [RPS27B]	3.15
QVLNRYTYSSTLSHLRR [RPB2]	2.77
PVPESAGKADTSIRLEG [SRB4]	2.95
RNIILEARFDVLITSYE [ISW2]	2.41
KTCAEVIGGNSLFHIVV [SMC3]	2.96
NISRDFQSYIVSSLPGS [COR1]	2.08
LLQLIQSQPQEKFSEKM [ECM29]	2.46
INDFKKIGRENENENED [POP5]	2.76
LTSVTRHGFNRSNTGAL [RPO21]	2.75
VDKELLEPGCSVLLHHK [RPT2]	2.51
GVLLRDAHGVTQARVIT [RPS13]	2.85
KRRVTNLEFNYTKPYPN [SMC2]	2.75
SESGSKLNVDQFISSRQ [POP1]	3.29
TTPVKLGPGIYCDPNTQ [RRP40]	2.74
KYACLAIRKNGQIDFWY [SIN4]	2.08
RSKFLSTVAKFLARVIK [IRR1]	2.24
NGDLTVSLCAKNMGLVP [SSN2]	2.13
EVTKSSHVENLEEKLYQ [YIL149C/MLP2]	2.93
TNGNNAGGGSNKSSVRP [MED6]	2.77
LLGKDNEDDALIYGISD [AAR2]	3.11
LSYYVEETNVDIGVLEE [SMC4]	3.62
GANTSAAQTLLQMDYKD [PRE9]	3.09
TYQTERFTKFSDTLKEF [YDL116W/NUP84]	1.73
KLNKKLQHLRSRCHLVT [SRP68]	3.3
NYDCKVISIVGGHSLEE [PRP28]	2.88

---

- protocol-text: protein stability index of a GFP-peptide fusion (yeast GPS) (PSI 1-4); higher = more stable; sorted into four equal gates, so the index is relative within each strain
- measurement-conditions: ubr1∆
measurement-name: protein stability index

biopolymer-sequence	measurement-name	experimental-result
DSTVVYPLPKFPTTSHE [MED8]	protein stability index	3.02
GNVIQFIYGEDGMDAAH [RPO21]	protein stability index	3.32
QFQKARNNVMLLIATNL [SRB8]	protein stability index	1.93
EKGENPSCVYNLIGVIT [UBP6]	protein stability index	3.06
AMICEAKGLIENIFEGE [YJR042W/NUP85]	protein stability index	2.81
ISLLCKNFKGIEEIEYN [PCI8]	protein stability index	3.01
DDIVSHQGTPLGSHSSS [REC8]	protein stability index	3.3
FANYKLLLKKIIKDYVL [SRB4]	protein stability index	1.86
RSNFRVNLSQEALQYDP [SNU114]	protein stability index	3.1
WRSKRIEQLFPVRPVRV [RPC53]	protein stability index	3.08
SGGEREIQRTMLELLNQ [RPT2]	protein stability index	3.15
ERVSPTDIEEGMRVGVD [RPT1]	protein stability index	3.16
YGQRAVLKFAAHTGATP [RPS0B]	protein stability index	2.66
ATLKEIKSIIEQRKQKL [SMC3]	protein stability index	3.04
VDKIFEKVNNNATLTPN [SWI1]	protein stability index	3.15

---

- protocol-text: protein stability index of a GFP-peptide fusion (yeast GPS) (PSI 1-4); higher = more stable; sorted into four equal gates, so the index is relative within each strain
- measurement-conditions: pdr5∆
Rule: protein stability index of 3 or more gives met; anything lower gives not met.

biopolymer-sequence	category
KPGRMPFNFTVTLFQMA [CDC53]	not met
DQNPIQVVVDAITNTGP [RPS5]	not met
SAKNRVVILARAKALGI [RPL32]	not met
PLVGKPKTELTKGDSTP [YAR002W/NUP60]	not met
KDQALIGTINSIVHINS [SIR2]	not met
NNSGNDNNNTTNNDSNN [MED2]	met
RYDCSFCGKKTVKRGAA [RPL43A]	not met
DNIYRNLQKIDKDSEEL [MED4]	met
ETPEGQACGLVKNLSLM [RPB2]	not met
ANNIVNIVSDAGANDTS [GRR1]	met
GHVKPVRCVNCSKSIPK [RPS26A]	not met
GQHKNNTSLNINGWKFE [SWP82]	met
ASSSPSSTDFSTCIVSL [ECM29]	not met

---

- protocol-text: protein stability index of a GFP-peptide fusion (yeast GPS) (PSI 1-4); higher = more stable; sorted into four equal gates, so the index is relative within each strain
- measurement-conditions: san1∆

biopolymer-sequence	protein stability index
EIYKQLNDRQEEISRLQ [YIL149C/MLP2]	3.6
PSYYYYVDPETTYTYQQ [ROX3]	2.85
LQNNSDSESDSDSETNH [SKP1]	2.84
TAFALGIACAGKGLQSA [RPN2]	1.3
LEFRWLTSSKSVIVSQF [SIN4]	1.6
ADNNDLQESINHVMYTE [ECM29]	3.05
NLDFDPRDVIKGKDFEI [FAS1]	3.32
LKIYKVGDIVDIKANGS [RPL21B]	1.83
NVFHGLCAGANNPKIQT [IRR1]	1.48
VLNCLRTMYFILDGQDV [YJR042W/NUP85]	1.31
FIANEGVHTGQFIYAGK [RPL2A]	2.04
YFSVTTARRNVSGDAAA [SWI3]	2.33
SGGSRNTSESLLVDIQK [SMC2]	2.33
AARKAEKAKSAGTQSSK [RPL24A]	3.22
ELDKREDMIDQVSKKLS [SMC3]	2.93
MKTQRFVSNMGFDIQKS [SIR4]	2.5
QKRIENGGNSVITLAEY [SRP68]	2.9
SRNKALELNLSVLHSWV [YJL039C/NUP192]	2.84
HTLDIINVLTDQNPIQV [RPS5]	2.12
VTWRTFTGDFLRRVEER [FAS1]	1.96
GEGPFTVKFKHMDYDGN [YMR129W/POM152]	2.78
MNNGSGRYLLTPPDDLH [SRB8]	2.29
FGKTVKDGPFYTGSMSL [RPC31]	2.81
KRLIAHDWLNALDGDLI [YCG1]	2.6
ILECDLLICIGTSLKVA [SIR2]	2.14
YQKKQYKDSLALINDLL [RPN6]	1.82
VKSLVDNMITGVTKGYK [RPL9A]	2.92
RQYVGQLAPSSVDPQSS [DIS3]	2.92
VEDTLHVNKRKRVSGTS [YOR098C/NUP1]	1.73
ILGKNFDSVIVENLTVA [SMC1]	2.11

---

Each entry below lists one item and its recorded protein stability index value.
- protocol-text: protein stability index of a GFP-peptide fusion (yeast GPS) (PSI 1-4); higher = more stable; sorted into four equal gates, so the index is relative within each strain
- measurement-conditions: san1∆

biopolymer-sequence	protein stability index
NNVAYGKKRFRVVTVDG [SMC4]	1.78
AELIPELYSFQQLVDSE [SNF12]	2.67
RDKAGRLAEVNLKDLNN [RPO21]	2.55
SGVPRLKEILNVAKNMK [RPO21]	1.32
PYAQKPLQGIFHNAVFN [QCR8]	2.35
TIELAGGGYFSAAGMTA [FAS1]	1.9
PSQGMVVEISNGNTSSK [FAS1]	3.2
LVETCLNDLVESSFIEI [BRR2]	2.69

---

- protocol-text: protein stability index of a GFP-peptide fusion (yeast GPS) (PSI 1-4); higher = more stable; sorted into four equal gates, so the index is relative within each strain
- measurement-conditions: san1∆
Below: a set of entries, each annotated with reported protein stability index.
measurement-name: protein stability index

biopolymer-sequence	experimental-result
SRPDILSKIKFPESIWK [YCG1]	1.92
HSKRELDSGDDQPQSSE [BRR2]	3.18
DELELEDAIHIALLTLK [PRE8]	3.07
SDPQMKVFDTLTRFSHD [RPN1]	2.78
QAINLGQVVLTPLTFAL [RPL14A]	1.25
ILSSLYLLSIWVKKFKW [CYT1]	1.77
YLEELQRKKQSDVLRFL [RPL15A]	1.72
CSPWSLQISDIPAAGNN [SRB5]	1.96
LADDDEERFSELFKGYL [RPL5]	2.84
ERTKNAQFIVISLRNNM [SMC4]	1.33
KKAVVKGTNGKKALKVR [RPL25]	1.91
AISGKKTTYYYYNEEGI [RPC82]	2.8
PKSTAPIFSFGKQEENG [YOR098C/NUP1]	2.49
ATLKEIKSIIEQRKQKL [SMC3]	3.16
TIHAKRKIVFRCSECIK [RPN4]	2.15
